Please provide measured pKd for the entries that follow.
# systemName: T1, AFP158/HLA-A*02:01 complex (human)
# T1 construct: flowed over the chip in SPR; also called AFP158 pro
# methodDescription: SPR, scFv captured, pMHC in flow;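 note: complex injected at several concentrations over crude scFv, association then running-buffer dissociation, KD estimated from kinetic on- and off-rate constants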
Give bare numbers, as −log10 of the molar value.

As a guide, the following entries are already answered.
{"columns": ["binder", "pKd"],
 "data": [
  ["LH98I (scFv, AS170036 VL1VH1 scFv mutein; also called AS170036 VL1VH1-VLH98I) scFv: QSALTQPRSVSGSPGQSVTISCAGTSSDVGSENYVSWYQQHPGKAPKLMIYQVNKRASGVPDRFSGSKSGNTASLTISGLQAEDEADYYCASYRSSDINIVFGGGTKLTVLGGGGSGGGGSGGGGSEVQLVESGGGLVQPGGSLRLSCAASGFTFSSYAMSWVRQAPGKGLEWVSTINSGTGSPYYADSVKGRFTISRDNSKNTLYLQMNSLRAEDTAVYYCAKNFFDGSWFLGPPAMDYWGQGTLVTVSSHHHHHH", 7.11],
  ["LY34P (scFv, AS170036 VL1VH1 scFv mutein) scFv: QSALTQPRSVSGSPGQSVTISCAGTSSDVGSENPVSWYQQHPGKAPKLMIYQVNKRASGVPDRFSGSKSGNTASLTISGLQAEDEADYYCASYRSSDHNIVFGGGTKLTVLGGGGSGGGGSGGGGSEVQLVESGGGLVQPGGSLRLSCAASGFTFSSYAMSWVRQAPGKGLEWVSTINSGTGSPYYADSVKGRFTISRDNSKNTLYLQMNSLRAEDTAVYYCAKNFFDGSWFLGPPAMDYWGQGTLVTVSSHHHHHH", 5.85],
  ["LH98V (scFv, AS170036 VL1VH1 scFv mutein; also called AS170036 VL1VH1-VLH98V) scFv: QSALTQPRSVSGSPGQSVTISCAGTSSDVGSENYVSWYQQHPGKAPKLMIYQVNKRASGVPDRFSGSKSGNTASLTISGLQAEDEADYYCASYRSSDVNIVFGGGTKLTVLGGGGSGGGGSGGGGSEVQLVESGGGLVQPGGSLRLSCAASGFTFSSYAMSWVRQAPGKGLEWVSTINSGTGSPYYADSVKGRFTISRDNSKNTLYLQMNSLRAEDTAVYYCAKNFFDGSWFLGPPAMDYWGQGTLVTVSSHHHHHH", 7.11],
  ["LD97E (scFv, AS170036 VL1VH1 scFv mutein) scFv: QSALTQPRSVSGSPGQSVTISCAGTSSDVGSENYVSWYQQHPGKAPKLMIYQVNKRASGVPDRFSGSKSGNTASLTISGLQAEDEADYYCASYRSSEHNIVFGGGTKLTVLGGGGSGGGGSGGGGSEVQLVESGGGLVQPGGSLRLSCAASGFTFSSYAMSWVRQAPGKGLEWVSTINSGTGSPYYADSVKGRFTISRDNSKNTLYLQMNSLRAEDTAVYYCAKNFFDGSWFLGPPAMDYWGQGTLVTVSSHHHHHH", 6.16],
  ["LY93D (scFv, AS170036 VL1VH1 scFv mutein) scFv: QSALTQPRSVSGSPGQSVTISCAGTSSDVGSENYVSWYQQHPGKAPKLMIYQVNKRASGVPDRFSGSKSGNTASLTISGLQAEDEADYYCASDRSSDHNIVFGGGTKLTVLGGGGSGGGGSGGGGSEVQLVESGGGLVQPGGSLRLSCAASGFTFSSYAMSWVRQAPGKGLEWVSTINSGTGSPYYADSVKGRFTISRDNSKNTLYLQMNSLRAEDTAVYYCAKNFFDGSWFLGPPAMDYWGQGTLVTVSSHHHHHH", 5.92],
  ["LD97Q (scFv, AS170036 VL1VH1 scFv mutein) scFv: QSALTQPRSVSGSPGQSVTISCAGTSSDVGSENYVSWYQQHPGKAPKLMIYQVNKRASGVPDRFSGSKSGNTASLTISGLQAEDEADYYCASYRSSQHNIVFGGGTKLTVLGGGGSGGGGSGGGGSEVQLVESGGGLVQPGGSLRLSCAASGFTFSSYAMSWVRQAPGKGLEWVSTINSGTGSPYYADSVKGRFTISRDNSKNTLYLQMNSLRAEDTAVYYCAKNFFDGSWFLGPPAMDYWGQGTLVTVSSHHHHHH", 6.24],
  ["LE32Q (scFv, AS170036 VL1VH1 scFv mutein) scFv: QSALTQPRSVSGSPGQSVTISCAGTSSDVGSQNYVSWYQQHPGKAPKLMIYQVNKRASGVPDRFSGSKSGNTASLTISGLQAEDEADYYCASYRSSDHNIVFGGGTKLTVLGGGGSGGGGSGGGGSEVQLVESGGGLVQPGGSLRLSCAASGFTFSSYAMSWVRQAPGKGLEWVSTINSGTGSPYYADSVKGRFTISRDNSKNTLYLQMNSLRAEDTAVYYCAKNFFDGSWFLGPPAMDYWGQGTLVTVSSHHHHHH", 6.24],
  ["LY93V (scFv, AS170036 VL1VH1 scFv mutein) scFv: QSALTQPRSVSGSPGQSVTISCAGTSSDVGSENYVSWYQQHPGKAPKLMIYQVNKRASGVPDRFSGSKSGNTASLTISGLQAEDEADYYCASVRSSDHNIVFGGGTKLTVLGGGGSGGGGSGGGGSEVQLVESGGGLVQPGGSLRLSCAASGFTFSSYAMSWVRQAPGKGLEWVSTINSGTGSPYYADSVKGRFTISRDNSKNTLYLQMNSLRAEDTAVYYCAKNFFDGSWFLGPPAMDYWGQGTLVTVSSHHHHHH", 6.35]
]}

Could you now look at the following binder, please?
pKd for LD97L (scFv, AS170036 VL1VH1 scFv mutein) scFv: QSALTQPRSVSGSPGQSVTISCAGTSSDVGSENYVSWYQQHPGKAPKLMIYQVNKRASGVPDRFSGSKSGNTASLTISGLQAEDEADYYCASYRSSLHNIVFGGGTKLTVLGGGGSGGGGSGGGGSEVQLVESGGGLVQPGGSLRLSCAASGFTFSSYAMSWVRQAPGKGLEWVSTINSGTGSPYYADSVKGRFTISRDNSKNTLYLQMNSLRAEDTAVYYCAKNFFDGSWFLGPPAMDYWGQGTLVTVSSHHHHHH ?
6.19

// data source = patent US20240279318A1
